biological target: recombinant human Myt1 (full length PKMYT1) (Homo sapiens (Human), UniProt Q99640); experiment: Recombinant human Myt1 kinase assay (ADP-Glo); details: 10 μM ATP
Sequence (Q99640 whole entry): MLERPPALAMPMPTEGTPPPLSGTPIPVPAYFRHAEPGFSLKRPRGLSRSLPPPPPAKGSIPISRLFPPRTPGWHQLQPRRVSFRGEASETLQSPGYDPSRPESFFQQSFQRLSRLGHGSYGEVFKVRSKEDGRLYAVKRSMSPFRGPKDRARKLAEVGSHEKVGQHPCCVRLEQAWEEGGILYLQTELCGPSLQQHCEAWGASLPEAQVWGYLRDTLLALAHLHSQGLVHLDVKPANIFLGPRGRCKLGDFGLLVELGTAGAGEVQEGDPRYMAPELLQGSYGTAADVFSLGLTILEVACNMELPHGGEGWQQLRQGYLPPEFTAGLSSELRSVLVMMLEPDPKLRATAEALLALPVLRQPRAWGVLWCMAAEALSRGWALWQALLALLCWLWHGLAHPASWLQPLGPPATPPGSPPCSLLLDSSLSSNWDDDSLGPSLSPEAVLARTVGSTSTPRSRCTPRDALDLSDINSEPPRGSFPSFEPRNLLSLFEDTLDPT
Criterion: IC50 strictly less than 10 nM. Met: 1. Not met: -1.

>>> class("Cc1ccc2[nH]ncc2c1-c1nc(-c2cc(F)cnc2N[C@H]2CC[C@](O)(C(F)(F)F)CC2)nc(C(N)=O)c1N [Compound 835]")
-1
>>> class("CC1(C(=O)Nc2cc(F)c(F)cc2-c2nc(C(N)=O)c(N)c(-c3c(Cl)ccc4[nH]ncc34)n2)CC1 [Compound 459]")
1
>>> class("Cc1ccc2[nH]ncc2c1-c1cc(-c2ccnc(NCC3(O)COC3)n2)nc(C(N)=O)c1N (atropisomer, axis not shown) [Compound 394]")
-1
>>> class("Cc1ccc(O)cc1-c1nc(-c2ccc(C(F)(F)F)cc2)nc(C(N)=O)c1N [Compound 7]")
-1
>>> class("Cc1ccc2[nH]ncc2c1-c1cc(-c2cccc(OCc3cnccn3)n2)nc(C(N)=O)c1N [Compound 250]")
1
>>> class("Cc1ccc2[nH]ncc2c1-c1cc(-c2ccnc(OCc3nc4ccccc4n3C)n2)nc(C(N)=O)c1N [Compound 336]")
-1
>>> class("Cc1ccncc1Nc1ncccc1-c1nc(C(N)=O)c(N)c(-c2c(C)ccc3[nH]ncc23)n1 [Compound 599]")
-1
>>> class("Cc1ccc2[nH]ncc2c1-c1cc(-c2ccnc(OC3(C)COC3)n2)nc(C(N)=O)c1N [Compound 220]")
1
>>> class("Cc1ccc2[nH]ncc2c1-c1cc(-c2ccnc(OCCc3ncc[nH]3)n2)nc(C(N)=O)c1N [Compound 240]")
1
>>> class("Cc1ccc2[nH]ncc2c1-c1nc(-c2ccccc2NC(=O)C(C)C)nc(C(N)=O)c1N [Compound 407]")
1
>>> class("Cc1ccc(O)cc1-c1nc(-c2ccc(N3CCOCC3)cc2)nc(C(N)=O)c1N [Compound 37]")
-1
>>> class("Cc1ccc(-c2nc(C(N)=O)c(N)c(-c3c(C)ccc4[nH]ncc34)n2)c(NC(=O)C2(C)CC2)c1 [Compound 433]")
1
>>> class("Cc1ccc2[nH]ncc2c1-c1cc(-c2ccnc(N3CCCC(O)C3)n2)nc(C(N)=O)c1N (stereo not drawn) [Compound 367]")
1
>>> class("Cc1ccc2[nH]ncc2c1-c1cc(-c2ccnc(N3CCCC3CO)n2)nc(C(N)=O)c1N (stereo not drawn) [Compound 373]")
-1
>>> class("CC[C@H](COc1nccc(-c2cc(-c3c(C)ccc4[nH]ncc34)c(N)c(C(N)=O)n2)n1)OC (atropisomer, axis not shown) [Compound 333]")
1
